# measured.target: human DLL3 endogenously expressed on SHP77 and NCI-H82 cells (human) (UniProt Q9NYJ7)
# Sequence (Q9NYJ7 27-618): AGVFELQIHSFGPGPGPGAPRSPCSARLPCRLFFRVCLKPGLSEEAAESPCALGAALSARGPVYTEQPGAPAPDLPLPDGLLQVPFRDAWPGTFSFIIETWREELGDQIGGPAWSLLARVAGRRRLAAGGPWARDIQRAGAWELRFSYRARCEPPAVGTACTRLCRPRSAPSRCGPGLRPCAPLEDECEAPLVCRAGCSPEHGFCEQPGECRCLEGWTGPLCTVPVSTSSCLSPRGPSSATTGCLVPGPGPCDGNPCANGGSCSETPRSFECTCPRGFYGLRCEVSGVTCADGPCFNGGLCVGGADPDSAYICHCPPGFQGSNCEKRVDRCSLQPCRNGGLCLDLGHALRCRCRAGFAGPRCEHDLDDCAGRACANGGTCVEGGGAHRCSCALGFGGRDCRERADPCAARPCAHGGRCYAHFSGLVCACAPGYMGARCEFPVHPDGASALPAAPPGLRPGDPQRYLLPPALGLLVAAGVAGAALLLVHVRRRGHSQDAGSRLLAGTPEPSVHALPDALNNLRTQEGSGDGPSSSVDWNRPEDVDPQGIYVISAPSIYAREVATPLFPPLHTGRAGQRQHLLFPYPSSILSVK
# assay.procedure: FACS SHP77 cells, 0.0064 nM
measurement.type: MFI

Example entries begin here.
binder: mab006 scFv-hFc (Fc fusion, not shown: small tags and cut ends; a dimerising Fc or GST) scFv (part 1 of 2): DVQITQSPSYLAASPGETITINCRATKSISKYLAWYQEKPGKTNKLLIFSGSTLQSGIPSRFRGSGSGTDFTLTISSLEPEDFAMYYCQQHHEYPYTFGGGTKLEIK scFv (part 2 of 2): QVQLQQPGAELVRPGTSVKLSCKASGYTFTSYWMHWVRQRPGQGLEWIGVIDPSDSLANYNQEFKGKATLTVDTSSSTAYMQLSSLTSEDSAVYYCARDSTVVAPMDYWGQGTSVTVSS
MFI: 152 MFI
--
binder: mab011 scFv-hFc (Fc fusion, not shown: small tags and cut ends; a dimerising Fc or GST) scFv (part 1 of 2): DIVLTQSPATLSVTPGDSVSLSCRASQSISNNLHWYQQKSHESPRLLIKYASQSISGIPSRFSGSGSGTDFTLSINSVETEDFGMYFCQQSNSWPWTFGGGTKLEIK scFv (part 2 of 2): EVQLQQSGPELVKPGASVKISCKASGYTFTDYYMNWVKQSHGKSLEWIGDISPNYGGTNYNQKFKGKATLTVDKSSSTACMELRSLTSEDSAVYYCTRSFYYYGTGYDWYFDVWGTGTTVTVSS
MFI: 103 MFI

Request: Which MFI value is on record for mab012 scFv-hFc (Fc fusion, not shown: small tags and cut ends; a dimerising Fc or GST) scFv (part 1 of 2): DVLMTQTPLSLPVSLGDQASISCRSSQSIVHSDGNTYLEWYLQKPGQSPKLLIYKVSNRFSGVPDRFSGSGSGTDFTLKISRVEAEDLGFYYCFQGSHVPFTFGSGTKLEIK scFv (part 2 of 2): QVQLQQSGPELVKPGASVKISCKASGYTFTDYYIHWVKQRPGQGLEWIGWTLPGSGSPYYNEKFKGKATLTVDKSSSTAYMLLSSLTSEDSAVYFCARWHYYYGSSYHFDYWGQGTTLTVSS ?
Response: 94 MFI
